The values you see were collected from the supplement of paper PMC8728848.

target: Fuc(a1-2)Gal(b1-3)GalNAc(b1-3)Gal(a1-4)Gal(b1-4)Glc; test: glycan array binding signal (z-score within array); higher = stronger binding; settings: glycan notation: IUPAC condensed, linker removed
Only a selection was taken, and the strongest signals are over-represented in it overall.
Label 0 if glycan array binding signal (z-score) falls below -0.2; label 1 in every other case.

# binder, category
records = [
    ("Pbx1CASH domain (Cryptococcus neoformans) (protein) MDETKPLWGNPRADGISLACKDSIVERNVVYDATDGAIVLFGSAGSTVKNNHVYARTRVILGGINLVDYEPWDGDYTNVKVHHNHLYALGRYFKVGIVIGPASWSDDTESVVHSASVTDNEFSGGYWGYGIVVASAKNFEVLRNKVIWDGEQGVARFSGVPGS", 1),
    ("FaeGad (Escherichia coli) (protein) WMTGDFNGSVDIGGSITADDYRQKWEWEVGTGLNGFGSVLNDLTNGGTKLTITVTGNKPILLGRTKEAFATPVTSGVDGIPHIAFTDYEGASVELRNPDGETEKGLTYFVLPMKNAEGTKVGSVKVNASYAGALGRGGVTSADGELMSLFAEGSHAIFYGGLPTNVKNSELKGGSAAAARTELFGSLSKNDILGQIQRVNANITSLVNVPGSFNENMAYTDGSVVSVAYALGIANGQTIEATFNQAVTTSTQWSAPLNVAITYY", 0),
    ("FimA-N1 (Actinomyces oris) (protein) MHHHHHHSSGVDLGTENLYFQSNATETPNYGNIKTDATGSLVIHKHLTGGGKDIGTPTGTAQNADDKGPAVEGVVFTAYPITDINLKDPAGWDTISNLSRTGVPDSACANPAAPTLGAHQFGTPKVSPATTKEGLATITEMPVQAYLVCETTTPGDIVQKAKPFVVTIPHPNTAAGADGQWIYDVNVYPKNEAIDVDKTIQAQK", 0),
    ("PfulAvr4 2 (Pseudocercospora fuligena) (protein) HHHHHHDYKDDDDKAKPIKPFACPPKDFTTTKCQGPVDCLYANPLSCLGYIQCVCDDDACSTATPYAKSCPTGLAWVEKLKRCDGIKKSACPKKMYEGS", 1),
    ("PLU (Photorhabdus luminiscence) (protein) HHHHHHENLYFQSSIVFASIDPRSNPLQTSSQNYVDIPGLKLDVSKYSNSPCLTALITLNIPTPYASGNNFPGGNFAIVTDQGEQLAYGGFTYSSKIPENSGRMPFTLVARYSLASNVSTIKAQWSNIRGSTVHIDSYASISAVIQCNQLV", 1),
    ("Mnn9-2N3 (Aspergillus fumigatus) (protein) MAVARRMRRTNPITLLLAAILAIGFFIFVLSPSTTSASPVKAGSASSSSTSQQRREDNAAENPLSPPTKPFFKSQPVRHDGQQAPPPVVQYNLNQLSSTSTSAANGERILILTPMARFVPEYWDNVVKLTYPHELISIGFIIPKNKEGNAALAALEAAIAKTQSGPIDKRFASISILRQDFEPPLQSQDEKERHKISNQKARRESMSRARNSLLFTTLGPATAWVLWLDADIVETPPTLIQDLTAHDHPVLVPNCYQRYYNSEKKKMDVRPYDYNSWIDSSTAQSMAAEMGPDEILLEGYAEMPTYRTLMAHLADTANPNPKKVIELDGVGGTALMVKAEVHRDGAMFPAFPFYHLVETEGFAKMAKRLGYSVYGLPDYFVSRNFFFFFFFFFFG", 0),
]
